Quick reference: pEC50 of the listed items.
- Target System: T1, human GPC3 (Glypican-3) (human, UniProt P51654 25-580)
- T1 construct: whole, on cells; the cell line is named under assay or readout
- Assay Summary: FACS on HepG2 cells
pEC50: −log10 of the molar value.
Measurement Kind: pEC50

# Binder, Measurement Kind, Recorded Result
data = [
    ("Y035 CDRs with Hu 52H5D3B8-7 FRs (antibody, V domains shown, built here from the pieces; detected with anti-human IgG) VH: EVQLVQSGAEVKKPGASVKVSCKASGYTFTDYEMHWVRQAPGQGLEWMGAIHPGSGDTAYNQRFKGRVTMTADKSISTAYMELSRLRSDDTAVYYCTRFYSYAYWGQGTLVTVSS VL: DVVMTQTPLSLSVTPGQPASISCRSSQSLVHSNGNTYLQWYLQKPGQSPQLLIYKVSNRFSGVPDRFSGSGSGTDFTLKISRVEAEDVGVYYCSQSIYVPYTFGGGTKVEIK", "pEC50", 9.21),
    ("Hu 52H5D3B8-7 (antibody, human IgG1, kappa, V domains shown, also called humanized GPC3 antibody Hu 52H5D3B8-7) VH: EVQLVQSGAEVKKPGASVKVSCKASGYTFTDYEMHWVRQAPGQGLEWMGAIHPGSGGTAYNQKFKGRVTMTADKSISTAYMELSRLRSDDTAVYYCTRFYSYAYWGQGTLVTVSS VL: DVVMTQTPLSLSVTPGQPASISCRSSQSLVHSNGNTYLQWYLQKPGQSPQLLIYKVSNRFSGVPDRFSGSGSGTDFTLKISRVEAEDVGVYYCSQSIHVPYTFGGGTKVEIKR", "pEC50", 9.39),
    ("Y035 antibody (CARSGEN Therapeutics), humanized (antibody, V domains shown) VH: EVQLVQSGAEVKKPGASVKVSCKASGYTHSDYEMHWVRQAPGQGLEWMGAIHPGSGDTAYNQRFKGRVTITADKSTSTAYMELSSLRSEDTAVYYCARFYSYAYWGQGTLVTVSA VL: DIVMTQTPLSLPVTPGEPASISCRSSQSLVHSNGNTYLQWYLQKPGQSPQLLIYKVSNRFSGVPDRFSGSGSGTDFTLKISRVEAEDVGVYYCSQSIYVPYTFGQGTKLEIKR", "pEC50", 8.90),
]

Origin of measurements: patent EP4591887A1
